Data origin, for the record: PubChem BioAssay (NCI)

growth for assorted compounds
- System: OVCAR-4 ovarian
- protocol-notes: NCI-60 one-dose screen, 48 h (100 = growth as untreated, 0 = no growth, -100 = all killed)
- condition-parameters: 10 µM unless noted
Compounds without any hit were thinned out: in the full panel of roughly 83,000, 20% have a hit.
API: value field is a number in %; no unit string.

Look over these answered cases.
O=C1c2cc3c(cc2-c2c1c1ccc(F)cc1c(=O)n2CCCNCCO)OCO3 ... -76.9
CC/C=C\C/C=C\C[C@H]1C/C=C2/C(=O)C=C[C@@H]2C/C=C\CCC(=O)O1 ... 26.7
Cn1cccc1-c1nc2c3c(ccc2[nH]1)C(=O)c1ccccc1C3=O ... 46.5
CSc1ccc(SC2c3ccc(C)cc3Oc3nc(N)c(C#N)c(N)c32)cc1 (stereo not given) ... -94.8

Please turn your attention to the following entry.
Could you please provide reported growth for "C=CC(=O)Nc1cccc(-c2nc(SC)nc(Nc3ccccc3OC)c2C#N)c1" ? Thanks!
-26.4
